Measured Efficacy by item
# Test system: Botrytis cinerea
# test: Fungicidal activity against Botryotinia fuckeliana infected in drug-pretreated cucumber two seeded leaves assessed as decrease in disease index at 500 ug/ml (acetone Rvb = 1.53 +/-0.21%)
# Format: functional
reported.endpoint: Efficacy (%)

mol_smiles=CCOc1ccc(C(=O)NNC(=O)c2ccc(-c3ccccc3[N+](=O)[O-])o2)cc1 reported_endpoint=Efficacy recorded_result=-43.27
mol_smiles=CCOc1ccc(C(=O)NNC(=O)c2ccc(-c3ccc([N+](=O)[O-])cc3)o2)cc1 reported_endpoint=Efficacy recorded_result=79.13
mol_smiles=CCOc1ccc(-c2nnc(-c3ccc(-c4ccc([N+](=O)[O-])cc4)o3)o2)cc1 reported_endpoint=Efficacy recorded_result=77.78
mol_smiles=Cc1ccc(-c2nnc(-c3ccc(-c4ccc(Cl)cc4)o3)o2)cc1 reported_endpoint=Efficacy recorded_result=42.38
